System: Pedicoccus acidilacti
Assay: MIC, agar dilution on brain-heart infusion agar
Assay type: cell-based
Conditions: Pedioccccus acidilacti (mean of 10)
Assay metric: log10 of MIC (log10 of the value in µg/mL)

CNC(CC(C)C)C(=O)NC1C(=O)NC(CC(N)=O)C(=O)NC2C(=O)NC3C(=O)NC(C(=O)NC(C(=O)O)c4cc(O)cc(O)c4-c4cc3ccc4O)C(OC3CC(C)(N)C(O)C(C)O3)c3ccc(c(Cl)c3)Oc3cc2cc(c3OC2OC(CO)C(O)C(O)C2OC2CC(C)(NCc3ccc(OC(F)(F)F)cc3)C(O)C(C)O2)Oc2ccc(cc2Cl)C1O (stereo not drawn)
0.63
CN[C@H](CC(C)C)C(=O)N[C@H]1C(=O)N[C@@H](CC(N)=O)C(=O)N[C@H]2C(=O)N[C@H]3C(=O)N[C@H](C(=O)N[C@H](C(=O)O)c4cc(O)cc(O)c4-c4cc3ccc4O)[C@H](O)c3ccc(c(Cl)c3)Oc3cc2cc(c3O[C@@H]2O[C@H](CO)[C@@H](O)[C@H](O)[C@H]2O[C@H]2C[C@](C)(N)[C@H](O)[C@H](C)O2)Oc2ccc(cc2Cl)[C@H]1O [vancomycin, reference compound]
2.95
CNC(CC(C)C)C(=O)NC1C(=O)NC(CC(N)=O)C(=O)NC2C(=O)NC3C(=O)NC(C(=O)NC(C(=O)O)c4cc(O)cc(O)c4-c4cc3ccc4O)C(OC3CC(C)(N)C(O)C(C)O3)c3ccc(c(Cl)c3)Oc3cc2cc(c3OC2OC(CO)C(O)C(O)C2OC2CC(C)(NCc3cc(OCc4ccccc4)ccc3OC)C(O)C(C)O2)Oc2ccc(cc2Cl)C1O (stereo not drawn)
1.94
CNC(CC(C)C)C(=O)NC1C(=O)NC(CC(N)=O)C(=O)NC2C(=O)NC3C(=O)NC(C(=O)NC(C(=O)O)c4cc(O)cc(O)c4-c4cc3ccc4O)C(OC3CC(C)(N)C(O)C(C)O3)c3ccc(c(Cl)c3)Oc3cc2cc(c3OC2OC(CO)C(O)C(O)C2OC2CC(C)(NCc3cccc(Oc4ccccc4)c3)C(O)C(C)O2)Oc2ccc(cc2Cl)C1O (stereo not drawn)
1.74
CNC(CC(C)C)C(=O)NC1C(=O)NC(CC(N)=O)C(=O)NC2C(=O)NC3C(=O)NC(C(=O)NC(C(=O)O)c4cc(O)cc(O)c4-c4cc3ccc4O)C(OC3CC(C)(N)C(O)C(C)O3)c3ccc(c(Cl)c3)Oc3cc2cc(c3OC2OC(CO)C(O)C(O)C2OC2CC(C)(NCc3cccc4c3oc3ccccc34)C(O)C(C)O2)Oc2ccc(cc2Cl)C1O (stereo not drawn) [Compound 39, 4-[1-oxa]fluorenylmethyl]
1.41
CNC(CC(C)C)C(=O)NC1C(=O)NC(CC(N)=O)C(=O)NC2C(=O)NC3C(=O)NC(C(=O)NC(C(=O)O)c4cc(O)cc(O)c4-c4cc3ccc4O)C(OC3CC(C)(N)C(O)C(C)O3)c3ccc(c(Cl)c3)Oc3cc2cc(c3OC2OC(CO)C(O)C(O)C2OC2CC(C)(NCc3ccc(-c4ccccc4)cc3)C(O)C(C)O2)Oc2ccc(cc2Cl)C1O (stereo not drawn) [Compound 2, p-phenylbenzyl.cndot.A82846B]
0.77

Data credit: patent US5843889A
